system: HL-60(TB) leukemia; assay: NCI tumour cell line growth inhibition, 48 h
measured property: GI50

The value of GI50 measured for the compound CCC(C)C1=C(O)[N+]2([O-])Oc3ccc(C4=C(O)C(=O)C(c5ccc(O)cc5)=C(O)C4=O)cc3OC2(C(C)CC)C(=O)N1O (stereo not drawn) turned out to be 14200 nM

The value of GI50 measured for the compound `CC(=O)/C(Br)=C/c1ccc(Br)o1` turned out to be 2530 nM

The value of GI50 measured for the compound COc1ccc(C2C(C#N)=C(N)Oc3c2sc2c(Br)cccc32)cc1 (stereo not drawn) turned out to be 1120 nM

* * *

tested on: M14 melanoma; assay: NCI tumour cell line growth inhibition, 48 h
Classify as follows. Reported TGI greater than or equal to 30 µM: true (1). Reported TGI below: false (0).

*Q* Decide: is the reported value of TGI for `COc1cc([N+](=O)[O-])c(S(=O)(=O)O)cc1-n1nc(C(=O)Nc2ccccc2)n[n+]1-c1cc(S(=O)(=O)[O-])c([N+](=O)[O-])cc1OC` equal to or greater than 30 µM?
*A* true (1)

*Q* Decide: is the reported value of TGI for `CS(=O)(=O)c1ccc2nc(-c3ccc(O)cc3)sc2c1` equal to or greater than 30 µM?
*A* true (1)

*Q* Decide: is the reported value of TGI for `CN(/N=C/c1ccccn1)C1=NCCCN1` equal to or greater than 30 µM?
*A* true (1)

*Q* Decide: is the reported value of TGI for COc1ccccc1/C=C\C(=O)C1COCN1 (stereo not given) equal to or greater than 30 µM?
*A* true (1)

*Q* Decide: is the reported value of TGI for O=C(c1ccc([N+](=O)[O-])cc1)C(Br)C(Br)c1ccnc2ccccc12 (stereo not given) equal to or greater than 30 µM?
*A* false (0)

*Q* Decide: is the reported value of TGI for CC1=C(C(=O)Nc2ccc(F)c(Cl)c2)C(c2cccc(Oc3ccccc3)c2)NC(=S)N1 (stereo not given) equal to or greater than 30 µM?
*A* false (0)

*Q* Decide: is the reported value of TGI for `O=C(CSCC(=O)N/N=C\c1ccc(O)c(O)c1O)N/N=C\c1ccc(O)c(O)c1O` equal to or greater than 30 µM?
*A* false (0)

*Q* Decide: is the reported value of TGI for `COc1c(C(C)(C)C)cc(CC2C(=O)C=CC2=O)cc1C(C)(C)C` equal to or greater than 30 µM?
*A* true (1)

*Q* Decide: is the reported value of TGI for `CCOC(=N)CC(=O)Nc1ccccc1` equal to or greater than 30 µM?
*A* true (1)

*Q* Decide: is the reported value of TGI for COc1ccc(C2C(C#N)=C(N)Oc3c2sc2c(Br)cccc32)cc1 (stereo not given) equal to or greater than 30 µM?
*A* false (0)

* * *

tested on: NCI/ADR-RES ovarian; assay: NCI tumour cell line growth inhibition, 48 h
Please provide measured TGI for the entries that follow.

The reported TGI value, NCI/ADR-RES ovarian, for `C=C1C(=O)O[C@H]2[C@H]1CC/C(COC(=O)/C=C\C(=O)NCc1ccc(Cn3c(=O)sn(CCI)c3=O)cc1)=C\CC[C@@]1(C)O[C@@H]21` reads > 100 µM

The reported TGI value, NCI/ADR-RES ovarian, for `COS(C)(=O)=O` reads > 2 µM

The reported TGI value, NCI/ADR-RES ovarian, for `C[P+](c1ccccc1)(c1ccc(Cl)cc1)c1ccc(Cl)cc1` reads > 100 µM

The reported TGI value, NCI/ADR-RES ovarian, for `Oc1ccc(C(O)(c2ccccc2)c2ccccc2)c2ccccc12` reads 6.58 µM

The reported TGI value, NCI/ADR-RES ovarian, for `O=C(COc1ccccc1)N(C(=O)N1CCN(c2ccccc2)CC1)S(=O)(=O)c1ccccc1` reads > 100 µM

The reported TGI value, NCI/ADR-RES ovarian, for O=C1CCC2c3ccccc3NCN12 (stereo unspecified) reads > 100 µM

* * *

system: MOLT-4 leukemia; assay: NCI tumour cell line growth inhibition, 48 h
measured property: TGI (µM)
Give just the number in µM; leave the unit off.

The value of TGI measured for the compound `C[n+]1c2ccccc2c(CNCC(=O)O)c2ccccc21` turned out to be 0.811

The value of TGI measured for the compound `O=C(CSCC(=O)N/N=C\c1ccc(O)c(O)c1O)N/N=C\c1ccc(O)c(O)c1O` turned out to be 11.9

* * *

test system: MDA-MB-231 breast; experiment: NCI tumour cell line growth inhibition, 48 h; in the data active = GI50 below about 0.43 µM; inactive = the rest
Pick from 1 (yes) (active), 0 (no) (inactive) when you respond.

*Q* How was `[N-]=[N+]=NCCCn1c2c(c3ccc([N+](=O)[O-])cc3c1=O)C(=O)c1cc(-c3ccccc3)ccc1-2` classified in this test?
*A* 0 (no)

*Q* How was `N#Cc1nc(C#N)c(Sc2ccccc2)c(Sc2ccccc2)c1Sc1ccccc1` classified in this test?
*A* 1 (yes)

*Q* How was `O=C1C=C(OCC=C(C(F)(F)F)C(F)(F)F)c2ccccc2C1=O` classified in this test?
*A* 0 (no)

*Q* How was `CCCCOc1ccc(/C=N/Nc2cc(C)nc3ccc(Br)cc23)cc1` classified in this test?
*A* 0 (no)

*Q* How was C#CC1(O)C(COP(=O)(O)OCC2OC(n3cc(F)c(=O)[nH]c3=O)CC2O)OC(n2ccc(N)nc2=O)C1O (stereo not given) classified in this test?
*A* 1 (yes)

* * *

Please provide measured TGI for the entries that follow.
system: UO-31 renal; assay: NCI tumour cell line growth inhibition, 48 h
Give just the number in µM; leave the unit off.

The reported TGI value, UO-31 renal, for `O=C(Nc1cc(Cl)ccc1O)c1cccc(Nc2ccnc(C(F)(F)F)c2)c1` reads 11.3

The reported TGI value, UO-31 renal, for CC(NC1=CC(=O)c2cccnc2C1=O)C(O)c1ccccc1 (stereo unspecified) reads 9.49

The reported TGI value, UO-31 renal, for O=CC1C(Cl)=Nc2nc3ccccc3n2C1c1ccccc1 (stereo unspecified) reads 48.4

* * *

system: SK-MEL-28 melanoma; assay: NCI tumour cell line growth inhibition, 48 h; in the data active means GI50 below about 0.43 µM; inactive means the rest
Pick from active, inactive when you respond.

*Q* How was `COc1ccc2c(c1)/C(=C\c1c(-c3cc(OC)ccc3OC)nc3sccn13)C(=O)N2` classified in this test?
*A* inactive

*Q* How was C#CC1(O)C(COP(=O)(O)OCC2OC(n3cc(F)c(=O)[nH]c3=O)CC2O)OC(n2ccc(N)nc2=O)C1O (stereo not drawn) classified in this test?
*A* active

*Q* How was `Cn1c(=O)c(Oc2ccc(F)cc2F)cc2cnc(N[C@@H]3CCOC3)nc21` classified in this test?
*A* inactive

* * *

test system: NCI-H226 lung; assay: NCI tumour cell line growth inhibition, 48 h
Classify as follows. Reported TGI greater than or equal to 10 µM: condition met. Reported TGI below: condition not met.

*Q* Decide: is the reported value of TGI for CC(NC1=CC(=O)c2cccnc2C1=O)C(O)c1ccccc1 (stereo not drawn) equal to or greater than 10 µM?
*A* condition not met

*Q* Decide: is the reported value of TGI for `CCOC(=O)/C(C(=S)NCc1ccccc1)=C(/N)N1CCCC1` equal to or greater than 10 µM?
*A* condition met

*Q* Decide: is the reported value of TGI for `C=CCNC1=C2C[C@@H](C)C[C@H](OC)[C@H](O)[C@@H](C)/C=C(\C)[C@H](OC(N)=O)[C@@H](OC)/C=C\C=C(/C)C(=O)NC(=CC1=O)C2=O` equal to or greater than 10 µM?
*A* condition met

*Q* Decide: is the reported value of TGI for CN1C(=O)C(C(=O)Nc2ccccn2)C2C[C@@]1(C)Oc1ccccc12 (stereo partly drawn) equal to or greater than 10 µM?
*A* condition met

*Q* Decide: is the reported value of TGI for N#CC1(C#N)C=CC(=C2OCC3CCCN23)C=C1 (stereo not drawn) equal to or greater than 10 µM?
*A* condition met

*Q* Decide: is the reported value of TGI for CCCCSCC(NC(=O)/C=C/c1c(C)[nH]c(=O)[nH]c1=O)C(=O)OC (stereo not drawn) equal to or greater than 10 µM?
*A* condition met

*Q* Decide: is the reported value of TGI for `COC(=O)c1c(-c2cc(OC)c(OC)c(OC)c2)oc2ccccc2c1=O` equal to or greater than 10 µM?
*A* condition met

*Q* Decide: is the reported value of TGI for `CCCCCCCCCCNCCSS(=O)(=O)O` equal to or greater than 10 µM?
*A* condition not met

*Q* Decide: is the reported value of TGI for `COc1cc2c(oc(=O)c3cc4cc([Si](C)(C)C)oc4c(OC)c32)c2cccc(O)c12` equal to or greater than 10 µM?
*A* condition met

*Q* Decide: is the reported value of TGI for `COc1c(I)c(OC)c2c(c1I)O[C@@H]1OCC[C@H]21` equal to or greater than 10 µM?
*A* condition met

*Q* Decide: is the reported value of TGI for `CN(C)c1ccc(/C=N/c2nc3cc4sc(/N=C/c5ccc(N(C)C)cc5)nc4cc3s2)cc1` equal to or greater than 10 µM?
*A* condition met

*Q* Decide: is the reported value of TGI for `c1ccc(Cn2c(-c3ccc(-c4ccccc4)cc3)cc3ccccc32)cc1` equal to or greater than 10 µM?
*A* condition met

*Q* Decide: is the reported value of TGI for `CCC1(CC)N=C(C(F)(F)F)c2cc(C(=O)C(F)(F)F)c3ccccc3c2N1` equal to or greater than 10 µM?
*A* condition met

*Q* Decide: is the reported value of TGI for `C[n+]1c2ccccc2c(CNCC(=O)O)c2ccccc21` equal to or greater than 10 µM?
*A* condition met

*Q* Decide: is the reported value of TGI for `COc1cc(-c2nc3ccccc3o2)cc(CN2CCCCC2)c1O` equal to or greater than 10 µM?
*A* condition not met

*Q* Decide: is the reported value of TGI for `Cn1cc(C2=C(c3cn(CCCN)c4ccccc34)C(=O)NC2=O)c2ccccc21` equal to or greater than 10 µM?
*A* condition met

*Q* Decide: is the reported value of TGI for `CC(=O)/C(Br)=C/c1ccc(Br)o1` equal to or greater than 10 µM?
*A* condition met
